The reported numbers originate from patent US20170050957A1.

# Tested on: Wheat and Barley and test plant species
# assay info: Post-emergent Test III, herbicidal activity in wheat and barley (Table 17; visual injury, GR20/GR50/GR80/GR90)
# Format: in vivo
# test settings: SASKR; 70 g ai/ha; post-emergent; 21 d
reported endpoint: Visual Growth Reduction (%) 21 Days After Application, SASKR

structure_smiles_string=Nc1c(F)c(-c2ccc3cc[nH]c3c2F)nc(C(=O)O)c1Cl endpoint_value="B (85-94)"
structure_smiles_string=COC(=O)c1nc(-c2ccc(Cl)c3ccoc23)c(F)c(N)c1Cl endpoint_value="B (85-94)"
structure_smiles_string=COC(=O)c1nc(-c2ccc3cc[nH]c3c2F)c(F)c(N)c1Cl endpoint_value="B (85-94)"
